- ASSAY TEXT: Oral bioavailability in BALB/c mouse at 10 mg/kg by LC-MS/MS analysis
- Format: ADME, organism-based
- CONDITION DETAILS: in vivo
MEASUREMENT TYPE: bioavailability

Request the reported bioavailability associated with Nc1n[nH]c(N2CCC(NS(=O)(=O)Cc3ccc(Br)cc3)CC2)n1
57%

Request the reported bioavailability associated with CC(C)CN(CCc1ccc(Cl)cc1)C1CCN(c2nc(N)n[nH]2)CC1
52%

Request the reported bioavailability associated with CN(CCc1ccc(Br)cc1)C1CCN(c2nc(N)n[nH]2)CC1
99%

Request the reported bioavailability associated with Nc1n[nH]c(N2CCC(N(CCc3ccc(Cl)cc3)Cc3ccccc3Cl)CC2)n1
47%

Request the reported bioavailability associated with CC(C)CN(CCc1ccc(Br)cc1)C1CCN(c2nc(N)n[nH]2)CC1
100%
